# log10 IC50, INSL3-stimulated CYP11B1 mRNA in H295R stably expressing rat RXFP2 annotations
Tgt: rat relaxin family peptide receptor 2 (RXFP2) (rat) (UniProt Q5ECL0)
Sequence (Q5ECL0 entry or part of it): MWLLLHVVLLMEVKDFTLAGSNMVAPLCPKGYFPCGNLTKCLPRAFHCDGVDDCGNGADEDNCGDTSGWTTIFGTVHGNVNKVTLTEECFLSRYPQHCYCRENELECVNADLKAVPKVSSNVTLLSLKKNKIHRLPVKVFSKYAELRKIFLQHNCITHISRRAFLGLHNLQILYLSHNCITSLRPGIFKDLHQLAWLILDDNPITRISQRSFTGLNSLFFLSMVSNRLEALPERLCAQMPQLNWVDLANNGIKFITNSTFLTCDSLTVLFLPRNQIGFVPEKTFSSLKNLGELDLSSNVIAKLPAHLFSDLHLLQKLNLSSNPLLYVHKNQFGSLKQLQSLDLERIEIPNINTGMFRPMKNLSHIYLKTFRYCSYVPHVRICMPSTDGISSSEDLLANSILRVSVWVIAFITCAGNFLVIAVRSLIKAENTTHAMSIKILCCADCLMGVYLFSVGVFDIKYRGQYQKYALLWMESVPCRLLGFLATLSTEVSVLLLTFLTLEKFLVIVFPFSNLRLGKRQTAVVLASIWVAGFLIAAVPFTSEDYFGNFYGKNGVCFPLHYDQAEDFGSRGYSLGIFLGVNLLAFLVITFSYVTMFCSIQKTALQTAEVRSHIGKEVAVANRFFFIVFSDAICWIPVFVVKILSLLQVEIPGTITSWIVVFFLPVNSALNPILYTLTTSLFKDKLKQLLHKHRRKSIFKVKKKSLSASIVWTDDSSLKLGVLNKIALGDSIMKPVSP
Transform log10 | Measure IC50, INSL3-stimulated CYP11B1 mRNA in H295R stably expressing rat RXFP2 | Unit pM

{"Binder": "RXFP2 mAb 1F2 (antibody, V domains shown) VH: QVQLKQSGPGLVQPSQSLSITCTVSGFSLTAYGVNWVRQSPGKGLEWLGVIWSGGNTDYNAPFISRLSITKDNSKSQVFFKMNSLEADDTAIYYCARAKGYYAMDYWGQGTSVTVSS VL: DIQMTQSPASLSVSVGESVTITCRATENIYSNLVWYQQKQGQSPQLLVYAVTSLADGVPSRFSGSGSGTQYSLKINSLQSEDFGTYYCQHFWGTPYTFGGGTKLEIK", "Reported Result": 2.51}
{"Binder": "RXFP2 mAb 4H5 (antibody, V domains shown) VH: QVQLKQSGPGLVQPSQSLSITCTVSGFSLTNYGVHWVRQSPGKGLEWLGVIWRDGNTDYNAAFMSRLSITKDNSKSQVFFEMNSLQVDDTAIYYCCRGDGYYAMGYWGQGTSVTVSS VL: DIQMTQSPASLSVSVGETVTITCRASENIYSNLAWYQQRQGRSPQLLVYAATNLADGVPSRFSGSGSGTQYSLKINSLQSEDFGNYYCQHFWGSPRTFGGGTKLEIK", "Reported Result": 2.32}
{"Binder": "RXFP2 mAb 3F1 (antibody, V domains shown) VH: QVQLKESGPGLVAPSQSLSITCTVSGFSLTDYGVSWIRQPPGKGLEWLGVIWGGGSTDYNPALKSRLSISKDNSKSQVFLKMNSLQADDTAMYYCVKHEGYYAMDYWGQGTSVTVSS VL: DIQMTQSPASLSVSVGETVTITCRASENIYSNLAWYQQKQGKSPHLLVYAVTNLADGVPSRFSGSGSGTQYSLKINSLQSEDFGSYYCQHFWGTPYTFGGGTKLEIK", "Reported Result": 2.43}
{"Binder": "RXFP2 mAb 4B8 (antibody, V domains shown) VH: QVQLKQSGPGLVQPSQSLSITCTVSGFSLSRYGVHWVRQSPGKGLEWLGVIWSGGSTEYNAVFKSRLSISKDNSKSQVFFKMNSLQANDTAIYYCVRADGYYAMEYWGQGTSVTVSS VL: DIQMTQSPASLSVSVGETVTITCRASENIYSNLAWYQQKQGKSPQLLVYAVTNLADGVPSRFSGSGSGTQYSLKINSLQSEDFGNYYCQHFWGTPYTFGGGTKLEIK", "Reported Result": 2.36}

Data point: RXFP2 mAb 4A5 (antibody, V domains shown) VH: DVQLVESGGGLVQPGGSRKLSCAASGFTFSTFGMHWVRQAPEKGLEWVAYISSGSSTIYYADTVKGRFTISRDNPKNTLFLQMTSLRSDDTAMYYCSRSYYGSAHYFDYWGQGTTLTVSS VL: DIQMTQSPASLSVSVGETVTITCRASENIYSNLAWYQQKQGKSPQLLVYVATNLADGVPSRFSGSGSGTQYSLRINNLQSEDFGNYYCQHFWGTPPTFGGGTKLEIK ; log10 IC50, INSL3-stimulated CYP11B1 mRNA in H295R stably expressing rat RXFP2 = 3.45
